- Test system: UACC-257
- method notes: NCI tumour cell line growth inhibition, 48 h
Active and inactive are the calls of the source. No stated cut-off is given here; in the data, active = GI50 up to about 1.1 µM and inactive = higher.
value type: GI50

QUERY: Which GI50 reading was recorded for the compound c1ccc2c(c1)Sc1ccccc1N2CC1CN2CCC1CC2 (stereo not given) [MEQUITAZINE] ?
RESULT: 1.88 µM (inactive)

QUERY: CCOC(=O)CN1CCNCCN(CC(=O)OCC)CCNCC1 ?
RESULT: > 100 µM (inactive)

QUERY: What do you get for COc1ccc(CCN2C(=O)CC34C=CC(CC3C2=O)O4)cc1OC (stereo not given) ?
RESULT: > 100 µM (inactive)

QUERY: Again, but for C/C(CCc1ccccc1)=N\NC(N)=S
RESULT: > 100 µM (inactive)

QUERY: Can you check C=C1CCC2(C(C)=O)COC1(C)O2 (stereo not given) next?
RESULT: > 100 µM (inactive)

====

- Tested on: SK-MEL-2
- method notes: NCI tumour cell line growth inhibition, 48 h
Active and inactive are the calls of the source. Cut-off read from the data, not from the text of the source: active = GI50 up to about 1.1 µM and inactive = higher.
// one of active, inactive, no free text

QUERY: Call for entry CN(C)CCNc1ccc2c(=O)n(CCN(C)C)c(=O)n3c4ccc(N)cc4c(=O)c1c23 :
RESULT: active

QUERY: Same question for O=C1c2cc([N+](=O)[O-])ccc2NC2C(O)c3ccccc3N12 (stereo not given) please.
RESULT: inactive

QUERY: Now consider CCOC(=O)/C=C(/C(=O)OCC)n1ccc(=O)n(Cc2cn(COCCOC(C)=O)nn2)c1=O .
RESULT: inactive

QUERY: # iterate: CCOP(=O)(OCC)OC1C=CC2CCC1C2 (stereo not given)
RESULT: inactive

QUERY: Now consider COc1ccc(/C=C/c2cnnc3ccccc23)cc1OC and answer again.
RESULT: inactive

====

- System: SN12C
- method notes: NCI tumour cell line growth inhibition, 48 h
Activity calls are given as the source filed them. Rule as the data show it: active = GI50 up to about 1.1 µM and inactive = higher.
value type: GI50

QUERY: Look up GI50: O=[N+]([O-])/C(Cl)=C(/C(Cl)=C(Cl)Cl)N1CCOCC1
RESULT: 7.43 µM (inactive)

QUERY: Consider next the compound N#CC1CC2(CCN1C(=O)c1ccccc1)OCCO2 (configuration not stated) in the same way.
RESULT: > 100 µM (inactive)

QUERY: Then CCOC(=O)/C=C(/C(=O)OCC)n1ccc(=O)n(Cc2cn(COCCOC(C)=O)nn2)c1=O ?
RESULT: 34.8 µM (inactive)

QUERY: Now give it for O=C(NN1C(=O)CS(=O)(=O)C1c1ccc(C(F)(F)F)cc1)c1ccncc1 (configuration not stated) too.
RESULT: > 100 µM (inactive)

QUERY: Now try CC(C)(C)N1C(=O)c2ccccc2C1(O)C(F)(F)F (configuration not stated) .
RESULT: > 100 µM (inactive)

QUERY: Now try O=C(Nc1sccc1S(=O)(=O)c1ccccc1)c1ccccc1 .
RESULT: > 100 µM (inactive)

QUERY: Can you check O=C1Cc2ccccc2CCc2ccccc21 next?
RESULT: > 100 µM (inactive)

====

- System: MCF7
- method notes: NCI tumour cell line growth inhibition, 48 h
Active and inactive are the calls of the source. Cut-off read from the data, not from the text of the source: active = GI50 up to about 1.1 µM and inactive = higher.
Response enum: 1 for active, -1 for inactive

QUERY: For C(=N\Cc1ccccc1)/c1ccccc1-c1ccccc1/C=N/Cc1ccccc1 , what call appears in the results of this test?
RESULT: -1

QUERY: Param item: Nc1ccc(-c2nc3ccc(F)cc3s2)cc1I
RESULT: 1

QUERY: Can you handle COc1ccc(OC)c2c1C1CCC(=O)N1CN2C(C)=O (stereo not given) next?
RESULT: -1

QUERY: Likewise for CC1=C([S+]([O-])c2ccc(C)cc2)CCC2(CCCCO2)O1 (stereo not given) ?
RESULT: -1

QUERY: What do you have for CC[C@]12C=CCN3CC[C@@]4(c5cc(N=O)c(OC)cc5N(C)[C@H]4[C@@](O)(C(=O)NC(Cc4c[nH]c5ccccc45)C(=O)OC)[C@@H]1O)[C@@H]32 (stereo not given in full) ?
RESULT: -1

QUERY: Note, next up: CN(C)c1ccc2c(SCC(=O)OCC(=O)[C@@]3(O)CC[C@H]4[C@@H]5CCC6=CC(=O)C=C[C@]6(C)[C@H]5C(=O)C[C@@]43C)c3ccc(N(C)C)cc3nc2c1
RESULT: -1

QUERY: Try this compound next: O=c1[nH]cc(F)c(=O)[nH]1
RESULT: -1

QUERY: Input O=C1/C(=C/c2ccccc2[N+](=O)[O-])N=C(c2ccccc2)N1c1nc2ccccc2s1
RESULT: -1

QUERY: How about CCN(CC)C(=C(C(Cl)=C(Cl)Cl)[N+](=O)[O-])N(CC)CC ?
RESULT: -1

QUERY: Next compound: CC1(C)C2CC(=O)C1(C)C(O)C2Br (stereo not given)
RESULT: -1

QUERY: Thanks! And CC(C)OC(=O)C1=C2c3ncccc3C(=O)N2[C@@H](Cl)[C@H](Cl)[C@H]1Cl ?
RESULT: -1

QUERY: What about this compound? C=CCSS/C=C/C[S+]([O-])CC=C (stereo not given)
RESULT: -1

QUERY: Okay, and CCOC(=O)/C(C#N)=C/Nc1c(C)n(C)n(-c2ccccc2)c1=O ?
RESULT: -1

QUERY: Also Clc1ccc(/C=N/Nc2nnc3c4ccccc4c4ncccc4c3n2)cc1 , if possible.
RESULT: -1

QUERY: Cool, now [O-][S+](Nc1ccccc1)c1ccccc1Oc1ccccc1 (stereo not given)
RESULT: -1

====

- Tested on: SNB-78
- method notes: NCI tumour cell line growth inhibition, 48 h
The source made the active and inactive calls. Cut-off read from the data, not from the text of the source: active = GI50 up to about 1.1 µM and inactive = higher.
A correct response names exactly one class from active, inactive

QUERY: Short answer needed: outcome of this test for CCCCOC(=O)CNC(=O)OCCCCC#CC#CCCCCOC(=O)NCC(=O)OCCCC ?
RESULT: inactive

QUERY: Follow-up item: COc1cc2c(cc1OC)C(Cc1c3ccccc3cc3ccccc13)N(C)CC2 (centres undefined)
RESULT: inactive

QUERY: And for O=C(Cc1nc2ccccc2s1)Nc1ccc(Cl)cc1 ?
RESULT: inactive

QUERY: Same question, CC1C[C@H](OC(N)=O)C(C)CC1=O (some centres undefined) this time
RESULT: inactive

QUERY: Would you mind doing CCCNCCCC(NC(C)=O)C(=O)NCc1ccccc1 (centres undefined) as well?
RESULT: inactive

QUERY: Param item: O=C(CC(=O)C1CCOC1=O)C(=O)Nc1ccc(Cl)cc1Cl (centres undefined)
RESULT: inactive

QUERY: Let us now turn to Cc1c2cc[n+](C)cc2c(C)c2c1[nH]c1ccc(OCC(F)(F)F)cc12
RESULT: active

QUERY: Further, for COC(=O)C(CCC1(C)OCCO1)C(C)=O (centres undefined) ?
RESULT: inactive

QUERY: Same thing, different molecule: O=c1[nH]c(=O)n(C2CC(O)C(CO)O2)cc1/C=C/Br (centres undefined)
RESULT: inactive

QUERY: And the next one, Cc1ccc(S(=O)(=O)C(CC(=O)N2CCCC2)C(=O)c2ccccc2)cc1 (centres undefined) ?
RESULT: inactive

QUERY: Next record, please: CC(=O)CC(N)=O
RESULT: inactive

QUERY: Same again, this time with CC(=O)N1CCC2(c3ccccc3N(C(C)=O)C2c2ccc(O)cc2)C1C(=O)O (centres undefined)
RESULT: inactive

QUERY: Follow-up entry: O=C(Nc1nccs1)c1cc(C2=CC=CC([N+](=O)[O-])C=C2)nc(S)n1 (centres undefined)
RESULT: inactive

QUERY: Field entry: Cc1cc2c(c3c1c1ccccc1n3C)C(=O)c1ccccc1C2=O
RESULT: inactive

====

- Tested on: 786-0
- method notes: NCI tumour cell line growth inhibition, 48 h
Activity calls are given as the source filed them. Rule as the data show it: active = GI50 up to about 1.1 µM and inactive = higher.
Exercise: state measured GI50 for each of the molecules provided.

QUERY: Which GI50 value belongs to CC(=O)Nc1ccc2nc(-c3ccccn3)c(-c3ccccn3)nc2c1 ?
RESULT: > 100 µM (inactive)

QUERY: Next: CC1=C(C(=O)OCCc2ccc([N+](=O)[O-])cc2)C(c2ccccc2C(F)(F)F)C(C(=O)OC(C)C)=C(C)N1 (centres undefined)
RESULT: 4.16 µM (inactive)

QUERY: Now the same for COC(=O)CC[C@@H](C)[C@H]1CC[C@H]2[C@@H]3CC[C@@H]4C[C@H](O)CC[C@]4(C)[C@H]3CC[C@]12C
RESULT: 18.5 µM (inactive)

QUERY: Now the molecule Nc1ccc(-c2nc3ccc(F)cc3s2)cc1I
RESULT: 40.4 µM (inactive)

====

Consider the following molecules; for each one, report its GI50.
- System: HL-60
- method notes: NCI tumour cell line growth inhibition, 48 h
Activity calls are given as the source filed them. Cut-off read from the data, not from the text of the source: active = GI50 up to about 1.1 µM and inactive = higher.

QUERY: Give the measured GI50 of O=C(/C=C/c1ccsc1)c1ccsc1 .
RESULT: 17 µM (inactive)

QUERY: // repeat for CC(=O)Oc1cc2c(cc1OCC(F)(F)F)[C@H]1CC[C@]3(C)[C@@H](OC(C)=O)CC[C@H]3[C@@H]1CC2=O and report
RESULT: 13.9 µM (inactive)

QUERY: Same lookup for CC(=O)CC(N)=O , please.
RESULT: > 100 µM (inactive)

QUERY: Please do the same for CCOC(=O)C1=C(O)C(=O)c2c(OC)ccc(OC)c2C1=O as well.
RESULT: > 100 µM (inactive)

QUERY: Another molecule to look at: O=c1[nH]cc(F)c(=O)[nH]1 [FLUOROURACIL]
RESULT: 20.9 µM (inactive)

QUERY: Then this molecule: Cc1cccc(/N=N/c2c(C)nn(C(=O)CC(=O)Nc3ccc(Cl)cc3)c2C)c1
RESULT: 36 µM (inactive)

QUERY: Input Cc1cc2c(c3c1c1ccccc1n3C)C(=O)c1ccccc1C2=O
RESULT: 39.3 µM (inactive)

QUERY: Now this one: CC(=O)N1CCC2(c3ccccc3N(C(C)=O)C2c2ccc(O)cc2)C1C(=O)O (stereo unspecified)
RESULT: > 100 µM (inactive)

QUERY: Thanks! And CCN(Cc1cc(Cl)cc(C)c1O)Cc1c(O)ccc2ccccc12 ?
RESULT: 12 µM (inactive)

QUERY: What do you get for CC(=O)OC[C@@]1(C)[C@@H]2[C@@H]3[C@@]4(CO[C@]3(C)C(=O)[C@@]3(O)C[C@H](C)[C@H](OC(C)=O)[C@@H]3[C@H]4OC(C)=O)[C@H](OC(=O)c3ccccc3)C[C@@H]21 ?
RESULT: > 100 µM (inactive)

QUERY: COc1ccccc1/C=C1\CCC(CCN2CCOCC2)C1=O (stereo unspecified) ?
RESULT: 31.5 µM (inactive)

The reported measurements were obtained from ChEMBL document CHEMBL1201862.
